- system tested: T1, hIL-18Rα ECD-Fc fusion protein (human, UniProt Q13478 22-329)
- T1 construct: extracellular domain; captured on Protein A sensor
- T1 sequence (looked up): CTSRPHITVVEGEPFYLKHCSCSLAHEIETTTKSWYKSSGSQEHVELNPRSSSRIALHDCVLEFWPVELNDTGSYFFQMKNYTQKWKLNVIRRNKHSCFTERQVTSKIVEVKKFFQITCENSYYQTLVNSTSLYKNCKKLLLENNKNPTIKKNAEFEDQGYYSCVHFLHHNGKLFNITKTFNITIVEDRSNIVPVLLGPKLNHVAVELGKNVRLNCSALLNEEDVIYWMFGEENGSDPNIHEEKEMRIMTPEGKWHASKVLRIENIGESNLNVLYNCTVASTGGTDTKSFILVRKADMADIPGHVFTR
- assay remarks: BLI (Octet RED96), hIL-18Rα ECD-Fc on Protein A sensor; note: test concentration or dose not given here
property name: Response (nm)
# unit: nm | format: bare number

## Input Identify the reported Response (nm) for the following entry. IL-18 variant polypeptide LM2 (ligand, soluble, E. coli-made) YFPKLRSKLSVIRNLNDQVLFIDQGNRPLFEDMTDSDCRDNAPRTIFIISMYKLSGSRGMAVTISVKCEKISTLSCENKIISFKEMNPPDVIKDTKSDIIFFQRSVPGHDNKMQFESSSYEGYFLACEKERDLFKLILKKEDELGDRSIMFTVQNED
## Output 0.0338
